# target-or-system: Cholesteryl ester transfer protein (Oryctolagus cuniculus, UniProt P22687)
# Sequence (P22687 whole entry): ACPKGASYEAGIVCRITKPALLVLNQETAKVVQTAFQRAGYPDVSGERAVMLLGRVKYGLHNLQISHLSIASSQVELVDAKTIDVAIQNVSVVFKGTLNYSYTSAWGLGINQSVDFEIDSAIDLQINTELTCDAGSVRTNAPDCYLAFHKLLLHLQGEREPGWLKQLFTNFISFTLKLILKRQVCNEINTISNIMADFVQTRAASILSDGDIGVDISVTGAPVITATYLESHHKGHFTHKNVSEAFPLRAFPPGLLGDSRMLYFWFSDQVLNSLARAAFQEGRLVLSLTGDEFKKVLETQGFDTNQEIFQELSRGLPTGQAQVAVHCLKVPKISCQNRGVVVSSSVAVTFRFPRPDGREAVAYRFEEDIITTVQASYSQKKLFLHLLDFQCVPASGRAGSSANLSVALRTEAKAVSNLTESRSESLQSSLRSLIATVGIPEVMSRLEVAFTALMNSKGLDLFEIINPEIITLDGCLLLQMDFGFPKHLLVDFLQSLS
# test-protocol: Inhibition of CETP in rabbit serum incubated for 1 hr using NBD-labeled cholesterol in HDL and LDL by fluorescence based assay
Please provide measured IC50 for the entries that follow.

Param item = CC(=O)Oc1ccc2c(=O)c(-c3ccc(NC(=O)COc4ccccc4)cc3)coc2c1 ; retrieve measured IC50.
1.52 µM

Param item = CC(=O)Oc1ccc2c(=O)c(-c3ccc(NC(=O)COc4ccccc4C)cc3)coc2c1 ; retrieve measured IC50.
8.42 µM

* * *

# Tested on: 3T3-L1
# test-protocol: Inhibition of cell proliferation of mouse 3T3L1 cells at 100 uM incubated for 48 hrs by MTT assay
# Format: functional, cell-based
Calls of active or inactive are those of the source. The calls are words filed in the database; no cut-off is given here.
Thanks in advance; please answer with one of these: yes (1) (active), no (0) (inactive)

Could you please tell me the result logged for CC(=O)Oc1ccc2c(=O)c(-c3ccc(NC(=O)COc4ccccc4)cc3)coc2c1 in this assay?
yes (1)

Could you please tell me the result logged for CC(=O)Oc1ccc2c(=O)c(-c3ccc(NC(=O)COc4ccccc4C)cc3)coc2c1 in this assay?
yes (1)

Could you please tell me the result logged for Cc1cccc(OCC(=O)Nc2ccc(-c3coc4cc(O)ccc4c3=O)cc2)c1 in this assay?
no (0)
